Origin of measurements: PubChem BioAssay (NCI)

Tested on: K-562 leukemia
Test: NCI tumour cell line growth inhibition, 48 h
measurementName: TGI

Below: 8 compounds and their reported TGI.
compound	TGI
COc1ccc2c(c1)nc1n2C(c2c(F)cccc2F)SC1 (stereo not drawn)	> 100 µM
OC12c3ccccc3C1CCCCCCCCCC21OCCCO1 (stereo not drawn)	> 100 µM
COC(=O)C1=C(O)C(C(=O)OC)[C@]2(O)[C@H](C(=O)OC)[C@H]1C[C@@H](c1ccc(O)cc1)[C@H]2C(=O)OC (stereo partly drawn)	> 100 µM
O=[N+]([O-])c1ccc(OCCNc2cccc3ccccc23)cc1	> 100 µM
CC1(c2ccccc2)CC12C(=O)NC(=O)NC2=O (stereo not drawn)	> 100 µM
c1ccc2nc3c(nc2c1)sc1nc2ccccc2n13	> 100 µM
CC(C)(C)C(=O)Nc1ccccc1Br	> 100 µM
O=S(=O)(O)c1cc(S(=O)(=O)O)c2c(N=Nc3ccccc3)c(O)ccc2c1	> 100 µM

Field: TGI. Fill in for each record below.
1. COc1ccc2c(CN3CCC(CO)CC3)cc3cc4c(cc3c2c1)OCO4
2. CC(C)C(=O)CC(Sc1ccc(N)cc1)c1ccccc1 (stereo not drawn)
3. CCCCn1c(C)c(C)c2c1NN=C(C#N)S2(=O)=O
4. O=S(=O)(O)c1ccc(N=Nc2c(O)ccc3ccccc23)cc1
5. CC(=O)O[C@H]1CC[C@@]2(C)C(=CC[C@H]3[C@@H]4C[C@H](N5CCN(C)CC5)[C@H](OC(C)=O)[C@@]4(C)CC[C@@H]32)C1

### Response
1: 3.07 µM; 2: > 100 µM; 3: > 100 µM; 4: > 100 µM; 5: 4.07 µM

* * *

Provide the recorded TGI for the entries that follow.
Tested on: OVCAR-3 ovarian
Test: NCI tumour cell line growth inhibition, 48 h

molecule	TGI
COc1ccc(-c2c(C#N)c(N)n(C3OCC(O)C(O)C3O)c(=S)c2C#N)cc1 (stereo not given)	> 100 µM
Nc1nc(SCC(=O)O)[nH]c(=O)c1N	> 100 µM
CCOC(=O)CCN1C(=O)c2ccc(NC(=O)C(=O)O)cc2S1(=O)=O	> 100 µM
COc1cc(-c2cc(C(=O)Nc3nc4ccccc4s3)nc3cc(-c4ccccc4)nn23)cc(OC)c1OC	52.1 µM

"O=C1CCCSCCCC(=O)CCCSCCC1" has a reported TGI of > 100 µM

* * *

Tested on: MCF7 breast
Assay: NCI tumour cell line growth inhibition, 48 h
measurementName: TGI

compound	measurementName	recordedValue
CCOC(=O)c1nc2cc(F)c(F)cc2nc1NCc1cc(OC)c(OC)c(OC)c1	TGI	> 100 µM
CC1CC/C(=C\c2ccc(Cl)cc2)C(=O)/C1=C\c1ccc(Cl)cc1 (centres undefined)	TGI	> 100 µM
CC(C)(C)c1cc(C(C)(C)C)c(P=C(Cl)Cl)c(C(C)(C)C)c1 (centres undefined)	TGI	> 100 µM

We next turn to a different compound, shown below.
get_value(item= "COc1c(O)cc2oc3cc(O)c(CC=C(C)C)c(O)c3c(=O)c2c1C/C=C(\C)CCC=C(C)C" , readout=TGI) returns 13.7 µM

* * *

Provide the recorded TGI for the entries that follow.
Test system: HOP-92 NSCLC
Test: NCI tumour cell line growth inhibition, 48 h

O=S(=O)(O)c1cc(S(=O)(=O)O)c2c(N=Nc3ccccc3)c(O)ccc2c1 > 100 µM
O=S(=O)(O)c1cccc2ccc(O)c(N=Nc3ccc(S(=O)(=O)c4ccc(N=Nc5c(O)ccc6cccc(S(=O)(=O)O)c56)cc4)cc3)c12 > 100 µM

TGI measured on "COc1ccc(/C=C/C(=O)c2cccc(C(=O)/C=C/c3ccc(OC)c(OC)c3)n2)cc1OC" = > 100 µM

* * *

Tested on: HOP-62 NSCLC
Assay: NCI tumour cell line growth inhibition, 48 h
measurementName: TGI (µM)
Give bare numbers, in µM.

molecule	TGI, µM
CC(C)C(=O)CC(Sc1ccc(N)cc1)c1ccccc1 (stereo not given)	83.9
CC1CC/C(=C\c2ccc(Cl)cc2)C(=O)/C1=C\c1ccc(Cl)cc1 (stereo not given)	57.9

Measured TGI for this entry "O=C1c2cccnc2-c2nc(-c3ccccn3)cc3c2c1nc1ccccc13" on HOP-62 NSCLC: 1.49

* * *

Hi there, I'd appreciate the recorded TGI for every entry that follows.
Test system: IGROV1 ovarian
Assay: NCI tumour cell line growth inhibition, 48 h

# example entries with known answers
compound	TGI
COc1ccc(/C=C\c2cc(OC)c(OC)c(OC)c2)cc1NC(=O)[C@@H](N)CO	> 92.6 µM
CC1(c2ccccc2)CC12C(=O)NC(=O)NC2=O (centres undefined)	> 100 µM
O=[N+]([O-])c1ccc(OCCNc2cccc3ccccc23)cc1	> 100 µM

The record that follows has no TGI shown yet.
In plain terms, "O=C1CCCSCCCC(=O)CCCSCCC1" has a documented TGI of > 100 µM

* * *

Field: TGI. Provide a value for each of the molecules that follow.
System: PC-3 prostate
Assay: NCI tumour cell line growth inhibition, 48 h

Example molecules with recorded TGI:
COc1ccc(-n2c(-c3ccc(NC(=O)CCCl)cc3)nnc2-c2cc(OC)c(OC)c(OC)c2)cc1 > 14.3 µM
Clc1ccc(N2COOC3(OOC2)C2CC4CC(C2)CC3C4)cc1 > 75.3 µM
CN(C)c1ccc(/C=C(\NC(=O)c2ccccc2)c2nc3ccccc3c(=O)o2)cc1 > 100 µM
N#Cc1c2ccccc2c2nnc3cc(C(F)(F)F)ccc3n12 > 100 µM

Pending molecule:
molecule "Clc1ccccc1-c1nn2c(CCCCCCCCc3nnc4sc(-c5ccccc5Cl)nn34)nnc2s1" , TGI observed: > 100 µM

* * *

Test system: SN12C renal
Assay: NCI tumour cell line growth inhibition, 48 h
Where a SMILES comes first, the peptide text is derived from it. The star is where a group is joined. Boc = CC(C)(C)OC(=O)*
measurementName: TGI

compound	TGI
COC(=O)CC(SCCO)SCCO	> 100 µM
Clc1ccc(N2COOC3(OOC2)C2CC4CC(C2)CC3C4)cc1	> 56.9 µM
CCOC(=O)Nn1cnnc1Cc1ccccc1	> 100 µM
CCOC(=O)C12C3CCC1C2C(=O)C3 (configuration not stated)	> 100 µM
Nc1ccc2c(c1)N(C(=O)CCCC(=O)N1CC(CCl)c3ccc(N)cc31)CC2CCl (configuration not stated)	9.67 µM

For each of the items listed, what is its TGI?
1. COC(=O)C(Cc1c[nH]c2ccccc12)NC(=O)C(Cc1c[nH]c2ccccc12)NC(=O)C(Cc1c[nH]c2ccccc12)NC(=O)C(Cc1c[nH]c2ccccc12)NC(=O)C(Cc1c[nH]c2ccccc12)NC(=O)OC(C)(C)C (configuration not stated) (Boc-WWWWW-OMe; configuration not given here)
2. Cc1c(C(=O)CCl)c(=O)n(-c2ccccc2)n1C
3. COc1ccccc1-c1n[nH]c(-c2ccccc2O)n1
4. CC(=O)O[C@H]1CC[C@@]2(C)C(=CC[C@H]3[C@@H]4C[C@H](N5CCN(C)CC5)[C@H](OC(C)=O)[C@@]4(C)CC[C@@H]32)C1
5. CCCC[P+](CCCC)(CCCC)C(C(=O)OC)C(C(=O)OC)=C1SC(C(=O)OC)=C(C(=O)OC)S1 (configuration not stated)
6. O=c1oc2ccccc2cc1-c1nc2ccccc2c(=O)[nH]1
7. O=C(c1ccccc1)c1ccc2cccc(O)c2n1

### Response
["> 100 µM", "28.6 µM", "> 100 µM", "67.8 µM", "> 100 µM", "> 100 µM", "> 100 µM"]

* * *

System: HT29 colon
Experiment: NCI tumour cell line growth inhibition, 48 h
Record form. Attribute: GI50. Fill in for each entry.

Solved cases below.
compound	GI50
Cc1cc(S(=O)(=O)Nc2nnc(-c3ccco3)c(-c3ccco3)n2)c(SCc2ccccc2)cc1Cl	23.1 µM
COc1ccc(/C=C/C(=O)/C=C(/C=C/c2ccc(OC)c(OC)c2)OB(F)F)cc1OC	1.03 µM
COc1cc(/C=C2\CC(C)CC3C2=NN(c2ccccc2)C3c2cc(OC)c(OC)c(OC)c2)cc(OC)c1OC (centres undefined)	11.1 µM

Need GI50 for each of these compounds.
1. CN(C)CCCNC(=O)c1cc(NC(=O)c2cc(NC(=O)CCCN3c4ccccc4C=Cc4ccccc43)cn2C)cn1C
2. CCOC(=O)Oc1c(OC)cc(C(=O)c2ccc(OC)c(OC(=O)CCl)c2OC)cc1OC
3. CCNCCNc1cc(-c2ccc(Cl)cc2)c(C#N)c2nc3ccccc3n12
4. Clc1ccc(Nc2ccnc(NCCNc3ccnc4cc(Cl)ccc34)n2)cc1
5. O=C(Oc1cccc(Nc2ncnc3ccccc23)c1)c1ccccc1Cl
6. O=C(Nc1ncc([N+](=O)[O-])s1)c1cccc([N+](=O)[O-])c1

### Response
3.59 µM
3.15 µM
1.79 µM
0.615 µM
27.4 µM
4.43 µM
